Could you please report measured Test A rating (% disease control) for the items listed next?
system: Erysiphe graminis f. sp. tritici; assay: Test A: wheat powdery mildew, preventive spray on wheat seedlings, visual disease rating; type: in vivo; details: 40 ppm (compound number followed by *)
Numbers only, in %.

Please review the entries below; each comes with its answer.
COc1cc(OC)cc(-c2c(C(C)C)cnc(C)c2-c2c(F)cc(F)cc2F)c1 [Compound 48] ... 98
C=C(C)c1cnc(CC)c(-c2ccccc2)c1-c1cc(OC)cc(OC)c1 [Compound 29] ... 91
Cc1nc(C#N)c(C)c(-c2ccc(Cl)cc2)c1-c1c(F)cccc1F [Compound 143] ... 99
COc1cc(OC)cc(-c2c(-c3cccnc3)cnc(C)c2-c2c(F)cc(F)cc2F)c1 [Compound 128] ... 81
COc1cc(OC)cc(-c2c(C(C)C#N)cnc(C)c2-c2c(F)cc(F)cc2F)c1 (stereo not drawn) [Compound 125] ... 96

Hey, quick one: what's Test A rating (% disease control) for each of these?
1. CCOC(=O)c1cnc(C)c(-c2ccccc2)c1-c1cc(OC)cc(OC)c1Cl [Compound 25]
2. COc1cc(OC)cc(-c2c(-c3ccc(F)cc3)cnc(C)c2-c2c(F)cc(F)cc2F)c1 [Compound 93]
3. COc1cc(OC)cc(-c2c(C(C)C)cnc(C)c2-c2c(F)cc(OC)cc2F)c1 [Compound 75]
4. Cc1cnc(C)c(-c2c(F)cccc2F)c1-c1ccc(Cl)cc1 [Compound 144]

1. 0
2. 96
3. 99
4. 0

Hey, quick one: what's Test A rating (% disease control) for each of these?
1. CCC(C)c1cnc(C)c(-c2c(F)cc(F)cc2F)c1-c1cc(OC)cc(OC)c1 (stereo not drawn) [Compound 73]
2. COc1cc(OC)cc(-c2c(-c3ccccc3)c(C)[n+]([O-])c(C)c2-c2ccccc2F)c1 [Compound 24]

1. 100
2. 91

###

Could you please report measured Test D rating (% disease control) for the items listed next?
test system: Septoria nodorum; assay: Test D: wheat glume blotch, preventive spray on wheat seedlings, visual disease rating; type: in vivo; details: 200 ppm, 100 = 100% disease control, 0 = no control
One number for each entry, in %.

Please review the entries below; each comes with its answer.
COc1cc(OC)cc(-c2c(-c3c(F)cccc3F)cnc(C#N)c2-c2c(F)cccc2F)c1 ... 0
CCC(O)c1cnc(C)c(-c2c(F)cc(F)cc2F)c1-c1cc(OC)cc(OC)c1 (stereo not shown) ... 100
COc1ccc(-c2c(C)ncc(C(C)(O)CO)c2-c2cc(OC)cc(OC)c2)cc1 (single isomer, unassigned) [Compound 83] ... 0

What Test D rating (% disease control) value was documented for this compound, COc1cc(OC)cc(-c2c(C(C)=O)cnc(C)c2-c2ccccc2)c1 ?
0

###

system: Puccinia recondite f. sp. tritici; experiment: Test B: wheat leaf rust, preventive spray on wheat seedlings, visual disease rating; assay type: in vivo; conditions: 200 ppm, 100 = 100% disease control, 0 = no control
EXPERIMENTAL ENDPOINT: Test B rating (% disease control) (%)
Give bare numbers, in %.

COc1cc(OC)cc(-c2c(C(C)(C)OC(C)=O)cnc(C)c2-c2c(F)cc(F)cc2F)c1 [Compound 102] ... 92
COc1cc(OC)cc(-c2c(C(C)C)cnc(C)c2-c2ccccc2)c1 [Compound 4] ... 92
COc1cc(OC)cc(-c2c(C(C)(C)O)cnc(C)c2-c2ccccc2F)c1 [Compound 18] ... 99
COc1cc(OC)cc(-c2c(C(C)=O)cnc(C)c2-c2c(F)ccc(OC)c2F)c1 [Compound 105] ... 99
COc1ccc(-c2c(C)ncc(C(C)(O)CO)c2-c2cc(OC)cc(OC)c2)cc1 (single isomer, unassigned) [Compound 83] ... 99
Cc1ncc(-c2ccccc2F)c(-c2cc(O)cc(O)c2)c1-c1ccc(F)cc1 [Compound 100] ... 89

Hey, quick one: what's Test B rating (% disease control) for each of these?
1. COc1cc(OC)cc(-c2c(C(C)(C)O)cnc(C)c2-c2c(F)cccc2F)c1 [Compound 42]
2. Cc1ncc(-c2ccccc2F)c(-c2cc(OC(F)F)cc(OC(F)F)c2)c1-c1ccc(F)cc1 [Compound 101]
3. CCOC(=O)c1cnc(CC)c(-c2ccccc2)c1-c1cc(OC)cc(OC)c1 [Compound 31]
4. COc1cc(OC)cc(-c2c(-c3ccc(F)cc3F)cnc(C)c2-c2ccc(F)cc2)c1 [Compound 38]

1. 100
2. 89
3. 0
4. 80

Hey, quick one: what's Test B rating (% disease control) for each of these?
1. COc1cc(OC)cc(-c2c(C(C)=O)cnc(C)c2-c2c(F)ccc(F)c2F)c1 [Compound 68]
2. C=C(C)c1cnc(C)c(-c2c(F)cc(F)cc2F)c1-c1cc(OC)cc(OC)c1 [Compound 43]
3. COc1cc(OC)cc(-c2c(-c3ccccc3F)cnc(C)c2-c2ccc(F)cc2)c1 [Compound 35]

1: 99; 2: 100; 3: 100
